test: Solubility of aminoflavone in Freon-22 / ethanol (BPN-06, BPN-07, BPN-08); type: physicochemical; details: 40 °C, organic solvent or mixture, thermodynamic from solid, BPN-06: Freon-22 100 vol %, ethanol 0 vol %, 3,000 psig and 40° C.

- compound: "Cc1c(F)c(N)c2c(=O)cc(-c3ccc(N)c(F)c3)oc2c1F [Sample 5, Aminoflavone]"
  solubility, µg/mL: 65

###

test: Solubility of aminoflavone in DI water and 1% PVA (HPLC); format: physicochemical; details: 1% PVA in water, aqueous with cosolvent or surfactant or cyclodextrin, thermodynamic from solid, 1% PVA after centrifugation, average; read-out: average (actual) solubility

- structure.smiles.string: "Cc1c(F)c(N)c2c(=O)cc(-c3ccc(N)c(F)c3)oc2c1F"
  solubility at 5 min, µg/mL: 0.22

###

assay: Solubility of aminoflavone in DI water and 1% PVA (HPLC); assay type: physicochemical; conditions: 1% PVA in water, aqueous with cosolvent or surfactant or cyclodextrin, thermodynamic from solid, 1% PVA after centrifugation; read-out: Solubility
measured.property: solubility at 5 min (µg/mL)

- structure.smiles.string: "Cc1c(F)c(N)c2c(=O)cc(-c3ccc(N)c(F)c3)oc2c1F"
  recorded.result: 0.2

###

test: Solubility of aminoflavone in DI water and 1% PVA (HPLC); format: physicochemical; conditions: DI water, water, thermodynamic from solid, DI water, before centrifugation, average; read-out: average solubility

- molecule: "Cc1c(F)c(N)c2c(=O)cc(-c3ccc(N)c(F)c3)oc2c1F [Sample 5, Aminoflavone]"
  readout.unit: "µg/mL"
  solubility at 5 min: 10.7

###

assay: Solubility of aminoflavone in DI water and 1% PVA (HPLC); type: physicochemical; conditions: 1% PVA in water, aqueous with cosolvent or surfactant or cyclodextrin, thermodynamic from solid, 1% PVA, after shaking, before centrifugation; read-out: Solubility
measured.property: solubility at 5 min (µg/mL)

- molecule: "Cc1c(F)c(N)c2c(=O)cc(-c3ccc(N)c(F)c3)oc2c1F [Sample 5, Aminoflavone]"
  measured.property: "solubility at 5 min"
  recorded.result: 14

The reported measurements were obtained from patent US8703727B2.
